Give measured IL-1β for each item. Keep answers brief.
Tested on: IL-1β production from human peripheral blood mononuclear cells (PBMC)
experimentSummary: IL-1β production from human PBMC, Cytometric Bead Array
Assay type: cell-based
runConditions: LPS 20 ng/ml; test compound 1 μg/ml; Table 18
Where no end group is shown, it is not given here.
The answer should read as a number with its unit following.

Can you look up IL-1β on IL-1β production from human peripheral blood mononuclear cells (PBMC) for hBD4 variant: consists of amino acids 3-39 of hBD4, SEQ ID NO:5; prepared using chemical synthesis (ELDRICGYGTARCRKKCRSQEYRIGRCPNTYACCLRK; hBD-4 variant consisting of amino acids 3-39 of SEQ ID NO4) ?
1004 pg/mL

Can you look up IL-1β on IL-1β production from human peripheral blood mononuclear cells (PBMC) for hBD3: human beta defensin 3, SEQ ID NO:3; prepared using chemical synthesis, Peptide Institute Inc. (GIINTLQKYYCRVRGGRCAVLSCLPKEEQTGKCSTRGRKCCRRKK; ends and bridges not checked; cysteine pairing not given here; listed as Homo sapiens) ?
568 pg/mL

Can you look up IL-1β on IL-1β production from human peripheral blood mononuclear cells (PBMC) for rhBD2: recombinant hBD2, which is identical to hBD2 as used in Example 1 (GIGDPVTCLKSGAICHPVFCPRRYKQIGTCGLPGTKCCKKP; not fully specified; ends and bridges not checked; UniProt O15263 24-64, looked up) ?
1480 pg/mL

Can you look up IL-1β on IL-1β production from human peripheral blood mononuclear cells (PBMC) for hBD1: human beta defensin 1, SEQ ID NO:1; prepared using chemical synthesis, Peptide Institute Inc. (DHYNCVSSGGQCLYSACPIFTKIQGTCYRGKAKCCK; ends and bridges not checked; cysteine pairing not given here; listed as Homo sapiens) ?
2087 pg/mL

meta.source: patent US20100016232A1
